# Test system: NOMO1
# Assay overview: cell viability relative to DMSO control; higher = less cytotoxic
# Condition details: RPMI 5 mM glucose + 10% dialyzed FBS; 48 h; 5.12 µM

Record smiles | cell viability [%]
CC(Oc1ccc(O)cc1)(P(=O)(O)O)P(=O)(O)O | 83.9
CCCn1c(=O)c2[nH]c(C34CC5CC3C[C@@H](C5)C4)nc2n(CCC)c1=O | 101
NC/1=N/C(=O)N(/C=C1)[C@H]2CC[C@@H](CO)O2 | 74
CCCCOc1ccc(C(=O)Nc2ccc(F)cc2F)cc1 | 97.8
CN(C)CCC=C1C2=C(C=CC=C2)\C=C/C3=C1C=CC=C3 | 99.3
C[C@H]1[C@@H](CC(C[C@H]2O[C@@H]3O[C@]4(C)CC[C@H]5[C@H](C)CC[C@@H]([C@H]2C)[C@@]35OO4)C[S+](=O)([O-])c2ccc(COC(=O)N(C)C)cc2)O[C@@H]2O[C@]3(C)CC[C@H]4[C@H](C)CC[C@@H]1[C@@]24OO3 | 24

====

# Test system: P12-Ichikawa
# Assay overview: cell viability relative to DMSO control; higher = less cytotoxic
# Condition details: RPMI 5 mM glucose + 10% dialyzed FBS; 48 h; 0.0211 µM
Endpoint name: cell viability (%)

Compound | Target desc | Endpoint name | Value reported
NC\1=N\C(=O)N(\C=N1)[C@H]2C[C@H](O)[C@@H](CO)O2 | P12-Ichikawa | cell viability | 106
CCOc1ccccc1OCCNC(C)Cc1ccc(OC)c([S+](N)(=O)[O-])c1 (centres undefined) | P12-Ichikawa | cell viability | 104
N#Cc1c(C2CCNCC2)cc(-c2c(O)cccc2OCC2CC2)nc1N | P12-Ichikawa | cell viability | 126
NC12CC3CC(CC(C3)C1)C2 | P12-Ichikawa | cell viability | 111
CO[C@@H]1[C@H](N(C)C(=O)c2ccccc2)C[C@H]2O[C@]1(C)n1c3ccccc3c3c4c(c5c6ccccc6n2c5c31)C(=O)NC4 | P12-Ichikawa | cell viability | 116
CCOc1cc2c(c(F)c1OCC)C(=N)N(CC(=O)c1cc(N3CCOCC3)c(OC)c(C(C)(C)C)c1)C2 | P12-Ichikawa | cell viability | 118
CCCCOc1ccc(C(=O)Nc2ccc(F)cc2F)cc1 | P12-Ichikawa | cell viability | 87.1
CC1(C)OC/2=C(\[C@H](NCC3=CC=CC=C3)[C@@H]1O)C(=O)C4=CC=CC=C4C2=O | P12-Ichikawa | cell viability | 101
COc1cc(N2CCC(N3CCN(C)CC3)CC2)ccc1Nc1ncnc(Nc2ccccc2[S+](=O)([O-])C(C)C)n1 | P12-Ichikawa | cell viability | 119

====

# Tested on: NOMO1
# Assay overview: cell viability relative to DMSO control; higher = less cytotoxic
# Condition details: RPMI 5 mM glucose + 10% FBS; 48 h; 1.71 µM
In this section we review reported cell viability values for a set of molecules.

Molecule | Target desc | cell viability, %
COc1ccc(-c2c(-c3ccc(O)cc3O)n[nH]c2C)cc1 | NOMO1 | 111
COc1ccc(-c2nc3cc(C4=NNC(=O)CC4C)ccc3[nH]2)cc1 (centres undefined) | NOMO1 | 114
Clc1ccc(COC(Cn2ccnc2)c2ccc(Cl)cc2Cl)cc1 (centres undefined) | NOMO1 | 117
COC1=CC=C(C=C1)C/2=C/OC3=CC(=CC=C3C2=O)O | NOMO1 | 118
CCOC(=O)c1ncn2c1CN(C)C(=O)c1cc(F)ccc1-2 | NOMO1 | 120
COc1ccc2cc(-c3[nH]c(-c4ccc([S+](C)[O-])cc4)nc3-c3ccncc3)ccc2c1 (centres undefined) | NOMO1 | 111
Cc1ccccc1C(C(=O)NC1CCCCC1)N(C(=O)CNc1ccc(C#N)cc1)c1cccc(F)c1 (centres undefined) | NOMO1 | 100
Cl.Cl.Fc1ccc(C(OCCN2CCN(CCCc3ccccc3)CC2)c2ccc(F)cc2)cc1 | NOMO1 | 113
CC1(C)O[C@H]2CC(=O)OC[C@]23[C@H]2CC[C@@]4(C)[C@H](c5ccoc5)OC(=O)[C@H]5O[C@]54[C@]2(C)C(=O)C[C@@H]13 | NOMO1 | 108
